Tested on: DU-145 prostate
Test: NCI tumour cell line growth inhibition, 48 h
OBSERVED_PROPERTY: TGI

Example cases with answers are listed next.
COMPOUND: S=c1[nH]c2c(Cl)c(Cl)c(Cl)c(Cl)c2[nH]1
TGI: > 100 µM

COMPOUND: O=C1c2ccccc2C(=O)c2c1nc1ccccc1c2-c1cncc(-c2c3c(nc4ccccc24)C(=O)c2ccccc2C3=O)c1
TGI: 16.1 µM

COMPOUND: COc1cc2c(cc1OC)C1C[C@]3(CCN1CC2)C(=O)N(c1ccccc1)C(=O)N3C(C)=O (stereo partly specified)
TGI: > 200 µM

COMPOUND: Oc1ccc2ccccc2c1N=Nc1ccc(Br)cc1
TGI: > 100 µM

COMPOUND: Cn1c2ccccc2c(=O)c2cccc(C(=O)NC(CS)C(=O)O)c21 (stereo unspecified)
TGI: > 100 µM

COMPOUND: BrCc1cccc(C[P+](c2ccccc2)(c2ccccc2)c2ccccc2)c1
TGI: > 100 µM

COMPOUND: Cn1c2c(c3ccccc31)CCN1C(=O)CN(C(=O)C3CCCCC3)CC21 (stereo unspecified)
TGI: > 100 µM

COMPOUND: Nc1c(C(=O)c2ccccc2)cnn1-c1ccc(F)cc1
TGI: > 25 µM

COMPOUND: O=C1c2cccc3cccc(c23)C(=O)N1CCCCCN1CCN(CCCCCOc2ccc(-c3nc4ccc(N5CCOCC5)cc4[nH]3)cc2)CC1
TGI: 27.8 µM

COMPOUND: COc1cc(/C=C\c2cc(OC)c(OC)c(OC)c2)cc(N/C=C\C(=O)c2cc(OC)c(OC)c(OC)c2)c1OC
TGI: > 100 µM

Your task in this section: give TGI for each listed record.
1. O=C1c2cc3c(cc2-c2c1c1cc(Cl)c(Cl)cc1c(=O)n2C[C@H](O)CO)OCO3
2. CN1C(=O)C2CCCC(=O)N2c2cccnc21 (stereo unspecified)
3. O=C1NC(N/N=C\C(O)C(O)C(O)C(O)CO)=N/C1=C/c1ccc(Cl)cc1 (stereo unspecified)
4. CCOC(=O)/C=C(\C(=O)OCC)n1ccc(=O)n(Cc2cn(CCCCOC(C)=O)nn2)c1=O
5. O=C1CCC/C=C\C[C@H]2C=CC(=O)/C2=C/C[C@H](C/C=C\CC(F)(F)F)O1
6. Cc1c2cccc-2c(OCCO)cc2c3ccccc3n(C)c12

1: 1.8 µM; 2: > 100 µM; 3: > 100 µM; 4: 45.4 µM; 5: 2.33 µM; 6: 20.6 µM

====

Would you mind telling me the reported TGI of each entry?
System: M14 melanoma
Assay: NCI tumour cell line growth inhibition, 48 h

# annotated cases, reported TGI shown
COMPOUND: CCCCC/C=C1\CCC(CN(C)C)C1=O (stereo unspecified)
TGI: 28.1 µM

COMPOUND: O=[N+]([O-])c1ccc(-c2cnc3ccccn23)cc1
TGI: > 100 µM

COMPOUND: O=[N+]([O-])c1cccc2ccc(N/N=C/c3ccccc3O)nc12
TGI: > 100 µM

Report TGI for each item below.
1. C=CCC1(CN(C)C)CC/C(=C\c2ccc(Cl)cc2)C1=O (stereo unspecified)
2. CC1CN=C(N(C(=O)Nc2ccc(Cl)c(Cl)c2)c2ccccc2)S1 (stereo unspecified)

1. > 64.9 µM
2. > 100 µM

# batch: return TGI for each of the 6 compounds below
1. CC1(C)N=C(N)N=C(N)N1c1ccc(CCCCc2ccc(Cl)c(S(=O)(=O)F)c2)c(Cl)c1
2. COc1ccc(C2=C(c3ccc(OC)cc3)C(=O)N3CCCC3C2)cc1 (stereo unspecified)
3. Clc1nc(Cl)nc(Nc2cccc3ccccc23)n1
4. CC(C)(C)[Si](C)(C)OC1C(=O)C[C@H]2CCCC[C@@H]12 (stereo partly specified)
5. CC1(C)OC2C(O)C(CO)OC2(C(F)F)O1 (stereo unspecified)
6. COC(=O)c1ccc2c(c1)/C(=C\c1cc(Br)c(O)c(Br)c1)C(=O)N2

> 41.2 µM
> 100 µM
> 100 µM
> 100 µM
> 100 µM
9.23 µM

The measured values listed here are drawn from PubChem BioAssay (NCI).
